Reference for the values: ChEMBL document CHEMBL2424622

Molecular target: Calcium/calmodulin-dependent protein kinase type 1 (Homo sapiens, UniProt Q14012)
Sequence (Q14012 whole entry, looked up): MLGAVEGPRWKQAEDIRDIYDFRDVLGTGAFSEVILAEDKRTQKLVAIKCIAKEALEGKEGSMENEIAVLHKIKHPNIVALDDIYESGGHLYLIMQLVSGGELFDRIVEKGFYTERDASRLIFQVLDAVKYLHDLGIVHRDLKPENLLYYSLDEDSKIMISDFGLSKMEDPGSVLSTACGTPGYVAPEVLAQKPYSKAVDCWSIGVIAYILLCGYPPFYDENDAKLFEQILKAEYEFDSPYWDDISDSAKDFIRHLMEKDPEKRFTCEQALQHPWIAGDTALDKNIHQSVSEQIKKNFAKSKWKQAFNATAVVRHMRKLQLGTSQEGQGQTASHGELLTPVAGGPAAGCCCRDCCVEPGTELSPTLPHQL
Assay: Competitive binding affinity to CAMK1 (unknown origin) at 10 uM in presence of ATP relative to control
READOUT LABEL: inhibition (%)

{"ITEM SMILES": "O[C@H]1CC[C@H](Nc2nccc(-c3n[nH]c4ccccc34)n2)CC1", "U": "%", "inhibition": 98}
{"ITEM SMILES": "O[C@H]1CC[C@H](Nc2nccc(-n3ccc4ccccc43)n2)CC1", "U": "%", "inhibition": 73}
{"ITEM SMILES": "N[C@H]1CC[C@H](Nc2nccc(-n3nnc4ccccc43)n2)CC1", "U": "%", "inhibition": 89}
{"ITEM SMILES": "O[C@H]1CC[C@H](Nc2nccc(-n3ncc4ccccc43)n2)CC1", "U": "%", "inhibition": 76}

###

Biological target: Mitogen-activated protein kinase kinase kinase kinase 5 (Homo sapiens) (UniProt Q9Y4K4)
Sequence (Q9Y4K4 whole entry, looked up): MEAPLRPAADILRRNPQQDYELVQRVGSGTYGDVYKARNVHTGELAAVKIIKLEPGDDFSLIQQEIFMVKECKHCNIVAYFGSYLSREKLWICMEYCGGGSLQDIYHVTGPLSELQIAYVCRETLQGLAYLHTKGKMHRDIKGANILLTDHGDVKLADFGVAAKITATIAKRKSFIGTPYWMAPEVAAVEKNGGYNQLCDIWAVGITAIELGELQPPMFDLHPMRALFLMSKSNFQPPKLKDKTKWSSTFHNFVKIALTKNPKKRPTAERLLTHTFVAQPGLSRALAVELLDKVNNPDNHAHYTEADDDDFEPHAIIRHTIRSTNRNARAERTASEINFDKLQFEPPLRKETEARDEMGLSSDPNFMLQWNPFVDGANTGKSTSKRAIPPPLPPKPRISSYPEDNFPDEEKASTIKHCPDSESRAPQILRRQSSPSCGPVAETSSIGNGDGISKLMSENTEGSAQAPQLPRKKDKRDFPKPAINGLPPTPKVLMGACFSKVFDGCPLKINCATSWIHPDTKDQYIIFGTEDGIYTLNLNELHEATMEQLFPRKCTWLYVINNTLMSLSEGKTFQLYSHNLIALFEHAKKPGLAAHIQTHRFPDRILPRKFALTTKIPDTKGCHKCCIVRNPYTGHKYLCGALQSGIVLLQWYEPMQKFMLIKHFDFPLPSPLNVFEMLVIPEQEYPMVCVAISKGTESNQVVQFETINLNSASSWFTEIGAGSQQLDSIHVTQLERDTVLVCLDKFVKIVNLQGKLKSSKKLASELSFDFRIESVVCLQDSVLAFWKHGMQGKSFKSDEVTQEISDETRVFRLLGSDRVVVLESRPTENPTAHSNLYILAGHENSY
Experiment: Competitive binding affinity to MAP4K5 (unknown origin) at 10 uM in presence of ATP relative to control
Below, each of the compounds is paired with its reported inhibition value.

{"ITEM SMILES": "O[C@H]1CC[C@H](Nc2nccc(-n3ccc4ccccc43)n2)CC1", "READOUT LABEL": "inhibition", "RECORDED RESULT": "< 50%"}

According to the records, this compound `O[C@H]1CC[C@H](Nc2nccc(-n3ncc4ccccc43)n2)CC1` displays inhibition of < 50%

According to the records, this compound `N[C@H]1CC[C@H](Nc2nccc(-n3nnc4ccccc43)n2)CC1` displays inhibition of < 50%

###

Biological target: 5'-AMP-activated protein kinase catalytic subunit alpha-1 (Homo sapiens)
Assay: Competitive binding affinity to AMPKalpha1 (unknown origin) at 10 uM in presence of ATP relative to control
READOUT LABEL: inhibition

Observe how each entry below is paired with its result.
{"ITEM SMILES": "N[C@H]1CC[C@H](Nc2nccc(-n3nnc4ccccc43)n2)CC1", "inhibition": "86%"}
{"ITEM SMILES": "O[C@H]1CC[C@H](Nc2nccc(-c3n[nH]c4ccccc34)n2)CC1", "inhibition": "92%"}
{"ITEM SMILES": "O[C@H]1CC[C@H](Nc2nccc(-n3ncc4ccccc43)n2)CC1", "inhibition": "< 50%"}
{"ITEM SMILES": "O[C@H]1CC[C@H](Nc2nccc(-n3ccc4ccccc43)n2)CC1", "inhibition": "< 50%"}
{"ITEM SMILES": "O=C([C@H]1CC[C@H](Nc2nccc(-n3nnc4ccccc43)n2)CC1)N1CCOCC1", "inhibition": "< 50%"}

Now for a further molecule.
In plain terms, `O[C@H]1CC[C@H](Nc2nccc(-n3nnc4ccccc43)n2)CC1` has a documented inhibition of < 50%

###

Biological target: MAP kinase-interacting serine/threonine-protein kinase 2 (Homo sapiens)
Assay: Competitive binding affinity to MKNK2 (unknown origin) at 10 uM in presence of ATP relative to control
READOUT LABEL: inhibition (%)

{"ITEM SMILES": "O=C([C@H]1CC[C@H](Nc2nccc(-n3nnc4ccccc43)n2)CC1)N1CCOCC1", "MEASUREMENT TARGET": "MAP kinase-interacting serine/threonine-protein kinase 2 (Homo sapiens)", "inhibition [%]": 97}
{"ITEM SMILES": "N[C@H]1CC[C@H](Nc2nccc(-n3nnc4ccccc43)n2)CC1", "MEASUREMENT TARGET": "MAP kinase-interacting serine/threonine-protein kinase 2 (Homo sapiens)", "inhibition [%]": 100}
{"ITEM SMILES": "O[C@H]1CC[C@H](Nc2nccc(-c3n[nH]c4ccccc34)n2)CC1", "MEASUREMENT TARGET": "MAP kinase-interacting serine/threonine-protein kinase 2 (Homo sapiens)", "inhibition [%]": 87}
{"ITEM SMILES": "O[C@H]1CC[C@H](Nc2nccc(-n3nnc4ccccc43)n2)CC1", "MEASUREMENT TARGET": "MAP kinase-interacting serine/threonine-protein kinase 2 (Homo sapiens)", "inhibition [%]": 86}
{"ITEM SMILES": "O[C@H]1CC[C@H](Nc2nccc(-n3ncc4ccccc43)n2)CC1", "MEASUREMENT TARGET": "MAP kinase-interacting serine/threonine-protein kinase 2 (Homo sapiens)", "inhibition [%]": 75}

###

Molecular target: Serine/threonine-protein kinase 26 (Homo sapiens) (UniProt Q9P289)
Sequence (Q9P289 2-416 limits assumed): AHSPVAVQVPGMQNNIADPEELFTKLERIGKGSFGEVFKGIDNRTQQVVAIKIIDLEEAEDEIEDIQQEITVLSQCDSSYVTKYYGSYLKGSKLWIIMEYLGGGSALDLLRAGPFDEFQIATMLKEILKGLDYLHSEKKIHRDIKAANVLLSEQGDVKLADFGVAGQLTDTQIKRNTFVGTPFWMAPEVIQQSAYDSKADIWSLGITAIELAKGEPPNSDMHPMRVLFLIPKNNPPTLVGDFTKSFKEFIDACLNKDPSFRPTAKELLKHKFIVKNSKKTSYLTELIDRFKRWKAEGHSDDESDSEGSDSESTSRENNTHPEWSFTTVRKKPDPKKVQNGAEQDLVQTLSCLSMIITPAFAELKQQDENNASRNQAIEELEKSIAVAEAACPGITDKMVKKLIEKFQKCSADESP
Assay: Competitive binding affinity to MST4 (unknown origin) at 10 uM in presence of ATP relative to control
READOUT LABEL: inhibition (%)

{"ITEM SMILES": "O[C@H]1CC[C@H](Nc2nccc(-n3ncc4ccccc43)n2)CC1", "inhibition, %": 76}
{"ITEM SMILES": "O[C@H]1CC[C@H](Nc2nccc(-n3nnc4ccccc43)n2)CC1", "inhibition, %": 79}
{"ITEM SMILES": "O[C@H]1CC[C@H](Nc2nccc(-n3ccc4ccccc43)n2)CC1", "inhibition, %": 80}
{"ITEM SMILES": "O[C@H]1CC[C@H](Nc2nccc(-c3n[nH]c4ccccc34)n2)CC1", "inhibition, %": 94}

###

A collection of compounds and their measured inhibition
Target: Tyrosine-protein kinase Fer (Homo sapiens) (UniProt P16591)
Sequence (P16591 whole entry, looked up): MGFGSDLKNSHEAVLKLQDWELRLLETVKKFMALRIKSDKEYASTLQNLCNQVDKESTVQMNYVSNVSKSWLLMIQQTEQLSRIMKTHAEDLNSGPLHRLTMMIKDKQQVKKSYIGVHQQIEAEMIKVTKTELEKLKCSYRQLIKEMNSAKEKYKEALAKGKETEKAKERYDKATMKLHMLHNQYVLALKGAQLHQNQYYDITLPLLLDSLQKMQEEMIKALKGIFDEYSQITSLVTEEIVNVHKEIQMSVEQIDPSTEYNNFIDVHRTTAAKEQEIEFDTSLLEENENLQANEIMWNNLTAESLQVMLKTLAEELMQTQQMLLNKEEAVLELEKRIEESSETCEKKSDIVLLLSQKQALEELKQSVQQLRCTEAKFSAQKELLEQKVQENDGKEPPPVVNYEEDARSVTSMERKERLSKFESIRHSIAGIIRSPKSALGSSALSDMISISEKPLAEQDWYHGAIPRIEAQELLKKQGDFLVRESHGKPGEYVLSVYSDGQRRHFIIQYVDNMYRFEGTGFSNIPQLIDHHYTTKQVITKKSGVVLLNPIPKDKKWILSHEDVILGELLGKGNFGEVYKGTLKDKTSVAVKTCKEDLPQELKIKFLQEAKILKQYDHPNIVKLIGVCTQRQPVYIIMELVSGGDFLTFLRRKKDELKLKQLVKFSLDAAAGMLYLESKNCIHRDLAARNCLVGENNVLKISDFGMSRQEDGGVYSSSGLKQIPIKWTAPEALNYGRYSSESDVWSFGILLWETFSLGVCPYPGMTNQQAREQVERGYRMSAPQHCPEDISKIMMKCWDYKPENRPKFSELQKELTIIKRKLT
Assay: Competitive binding affinity to FER (unknown origin) at 10 uM in presence of ATP relative to control

{"ITEM SMILES": "N[C@H]1CC[C@H](Nc2nccc(-n3nnc4ccccc43)n2)CC1", "MEASUREMENT TARGET": "Tyrosine-protein kinase Fer (Homo sapiens) (UniProt P16591)", "inhibition": "< 50%"}
{"ITEM SMILES": "O[C@H]1CC[C@H](Nc2nccc(-n3nnc4ccccc43)n2)CC1", "MEASUREMENT TARGET": "Tyrosine-protein kinase Fer (Homo sapiens) (UniProt P16591)", "inhibition": "< 50%"}
{"ITEM SMILES": "O[C@H]1CC[C@H](Nc2nccc(-n3ccc4ccccc43)n2)CC1", "MEASUREMENT TARGET": "Tyrosine-protein kinase Fer (Homo sapiens) (UniProt P16591)", "inhibition": "< 50%"}
{"ITEM SMILES": "O=C([C@H]1CC[C@H](Nc2nccc(-n3nnc4ccccc43)n2)CC1)N1CCOCC1", "MEASUREMENT TARGET": "Tyrosine-protein kinase Fer (Homo sapiens) (UniProt P16591)", "inhibition": "< 50%"}
{"ITEM SMILES": "O[C@H]1CC[C@H](Nc2nccc(-c3n[nH]c4ccccc34)n2)CC1", "MEASUREMENT TARGET": "Tyrosine-protein kinase Fer (Homo sapiens) (UniProt P16591)", "inhibition": "97%"}

Continue with the compound presented below.
The compound listed as `O[C@H]1CC[C@H](Nc2nccc(-n3ncc4ccccc43)n2)CC1` has a reported inhibition of < 50%

###

Molecular target: UniProt:Q15349
Sequence (Q15349 whole entry, the tested form may be a part): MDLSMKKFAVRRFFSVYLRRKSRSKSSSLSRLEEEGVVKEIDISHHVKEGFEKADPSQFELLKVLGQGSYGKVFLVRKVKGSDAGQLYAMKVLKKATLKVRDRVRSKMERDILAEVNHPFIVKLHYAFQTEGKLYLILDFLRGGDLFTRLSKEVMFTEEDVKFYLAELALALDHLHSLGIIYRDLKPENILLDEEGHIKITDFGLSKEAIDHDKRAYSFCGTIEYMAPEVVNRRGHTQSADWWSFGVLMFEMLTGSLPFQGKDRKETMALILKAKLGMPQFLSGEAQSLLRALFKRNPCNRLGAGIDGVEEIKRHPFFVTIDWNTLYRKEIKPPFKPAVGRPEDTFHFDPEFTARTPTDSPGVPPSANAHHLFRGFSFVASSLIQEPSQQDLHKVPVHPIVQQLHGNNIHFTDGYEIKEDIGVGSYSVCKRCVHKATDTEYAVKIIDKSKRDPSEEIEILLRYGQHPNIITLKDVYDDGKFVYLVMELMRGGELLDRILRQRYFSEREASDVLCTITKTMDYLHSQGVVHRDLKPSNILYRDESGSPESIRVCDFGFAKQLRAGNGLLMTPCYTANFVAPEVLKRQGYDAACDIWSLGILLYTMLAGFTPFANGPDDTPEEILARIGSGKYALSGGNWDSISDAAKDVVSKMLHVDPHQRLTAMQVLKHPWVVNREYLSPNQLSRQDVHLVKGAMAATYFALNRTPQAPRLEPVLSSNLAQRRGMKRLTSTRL
Test: Competitive binding affinity to RPS6KA2 kinase domain 1 (unknown origin) at 10 uM in presence of ATP relative to control
READOUT LABEL: inhibition (%)

{"ITEM SMILES": "O[C@H]1CC[C@H](Nc2nccc(-n3ncc4ccccc43)n2)CC1", "MEASUREMENT TARGET": "UniProt:Q15349", "RECORDED RESULT": 73}
{"ITEM SMILES": "O[C@H]1CC[C@H](Nc2nccc(-n3nnc4ccccc43)n2)CC1", "MEASUREMENT TARGET": "UniProt:Q15349", "RECORDED RESULT": 95}
{"ITEM SMILES": "N[C@H]1CC[C@H](Nc2nccc(-n3nnc4ccccc43)n2)CC1", "MEASUREMENT TARGET": "UniProt:Q15349", "RECORDED RESULT": 91}
{"ITEM SMILES": "O=C([C@H]1CC[C@H](Nc2nccc(-n3nnc4ccccc43)n2)CC1)N1CCOCC1", "MEASUREMENT TARGET": "UniProt:Q15349", "RECORDED RESULT": 100}
{"ITEM SMILES": "O[C@H]1CC[C@H](Nc2nccc(-c3n[nH]c4ccccc34)n2)CC1", "MEASUREMENT TARGET": "UniProt:Q15349", "RECORDED RESULT": 99}

###

Target: Tyrosine-protein kinase Blk (Homo sapiens) (UniProt P51451)
Sequence (P51451 2-505 limits assumed): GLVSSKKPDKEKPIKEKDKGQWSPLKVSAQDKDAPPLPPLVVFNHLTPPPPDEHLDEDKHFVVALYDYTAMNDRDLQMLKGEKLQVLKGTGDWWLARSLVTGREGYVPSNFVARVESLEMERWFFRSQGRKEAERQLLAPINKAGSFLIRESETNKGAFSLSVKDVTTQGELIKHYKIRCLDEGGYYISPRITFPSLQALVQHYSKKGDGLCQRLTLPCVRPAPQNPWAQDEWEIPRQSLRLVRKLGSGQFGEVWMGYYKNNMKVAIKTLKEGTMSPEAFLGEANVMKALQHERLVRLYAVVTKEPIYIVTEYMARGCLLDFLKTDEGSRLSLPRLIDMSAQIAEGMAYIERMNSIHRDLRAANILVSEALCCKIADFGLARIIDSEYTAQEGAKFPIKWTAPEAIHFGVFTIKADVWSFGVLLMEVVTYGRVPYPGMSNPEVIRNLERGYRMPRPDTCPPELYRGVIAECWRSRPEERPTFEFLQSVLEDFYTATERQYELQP
Assay: Competitive binding affinity to BLK (unknown origin) at 10 uM in presence of ATP relative to control
READOUT LABEL: inhibition (%)

{"ITEM SMILES": "O[C@H]1CC[C@H](Nc2nccc(-n3nnc4ccccc43)n2)CC1", "READOUT LABEL": "inhibition", "RECORDED RESULT": 88}
{"ITEM SMILES": "O=C([C@H]1CC[C@H](Nc2nccc(-n3nnc4ccccc43)n2)CC1)N1CCOCC1", "READOUT LABEL": "inhibition", "RECORDED RESULT": 93}
{"ITEM SMILES": "N[C@H]1CC[C@H](Nc2nccc(-n3nnc4ccccc43)n2)CC1", "READOUT LABEL": "inhibition", "RECORDED RESULT": 99}
{"ITEM SMILES": "O[C@H]1CC[C@H](Nc2nccc(-c3n[nH]c4ccccc34)n2)CC1", "READOUT LABEL": "inhibition", "RECORDED RESULT": 92}
